- System: FMC63
- Sequence (as listed by the source): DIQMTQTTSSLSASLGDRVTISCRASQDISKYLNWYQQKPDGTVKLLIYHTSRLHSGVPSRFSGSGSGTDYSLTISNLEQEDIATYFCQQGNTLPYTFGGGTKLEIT
- Sequence (as listed by the source): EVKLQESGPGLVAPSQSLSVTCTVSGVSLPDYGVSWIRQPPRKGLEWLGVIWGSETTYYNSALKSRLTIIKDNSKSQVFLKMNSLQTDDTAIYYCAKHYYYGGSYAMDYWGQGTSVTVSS
- Test description: CD19 variant binding to anti-CD19 antibody FMC63 (score)
- Measurement setup: Table 1A, CD19 single mutants (positions of SEQ ID NO:2)
Measured quantity: FMC63 Binding Score

Some entries whose results are on file:
INSERT INTO assay_data (molecule, test_value) VALUES
  ('G269I: CD19 variant (protein) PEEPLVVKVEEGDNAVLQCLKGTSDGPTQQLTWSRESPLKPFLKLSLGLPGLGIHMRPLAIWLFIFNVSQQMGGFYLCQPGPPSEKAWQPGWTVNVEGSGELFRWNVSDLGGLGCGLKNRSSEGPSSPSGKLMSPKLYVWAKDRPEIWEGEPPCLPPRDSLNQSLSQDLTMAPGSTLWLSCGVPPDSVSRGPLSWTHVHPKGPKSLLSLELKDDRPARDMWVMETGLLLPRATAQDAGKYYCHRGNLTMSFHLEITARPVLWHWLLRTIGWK', '6.7 ± .8'),
  ('Y240W: CD19 variant (protein) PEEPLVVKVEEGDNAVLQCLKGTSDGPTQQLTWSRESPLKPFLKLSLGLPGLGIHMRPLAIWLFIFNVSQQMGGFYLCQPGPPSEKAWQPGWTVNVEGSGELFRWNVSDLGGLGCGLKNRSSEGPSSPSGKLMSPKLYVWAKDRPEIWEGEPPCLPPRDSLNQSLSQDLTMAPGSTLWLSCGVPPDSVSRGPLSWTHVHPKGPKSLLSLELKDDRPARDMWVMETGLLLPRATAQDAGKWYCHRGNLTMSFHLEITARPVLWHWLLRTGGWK', '6.3 ± .3'),
  ('W262E: CD19 variant (protein) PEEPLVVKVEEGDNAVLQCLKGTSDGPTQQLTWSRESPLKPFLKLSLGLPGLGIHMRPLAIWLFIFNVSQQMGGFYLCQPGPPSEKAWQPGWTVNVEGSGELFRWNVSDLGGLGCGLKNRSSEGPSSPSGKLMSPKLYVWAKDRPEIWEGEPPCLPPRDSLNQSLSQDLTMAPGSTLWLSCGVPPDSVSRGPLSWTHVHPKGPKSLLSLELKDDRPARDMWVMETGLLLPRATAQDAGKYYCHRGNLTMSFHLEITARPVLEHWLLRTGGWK', '6.9 ± .3');

FMC63 Binding Score recorded for this molecule, A257R: CD19 variant (protein) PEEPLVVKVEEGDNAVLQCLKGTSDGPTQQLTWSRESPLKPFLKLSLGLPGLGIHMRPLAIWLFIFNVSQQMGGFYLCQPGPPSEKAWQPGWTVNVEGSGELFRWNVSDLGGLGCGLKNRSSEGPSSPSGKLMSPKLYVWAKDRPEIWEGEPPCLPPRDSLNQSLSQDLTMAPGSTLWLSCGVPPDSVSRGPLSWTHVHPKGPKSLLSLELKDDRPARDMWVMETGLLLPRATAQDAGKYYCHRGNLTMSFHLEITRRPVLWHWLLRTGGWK , is 6.1 ± .5
